protocol.description: in vitro
setup.conditions: human, hela cells, % viability
quantity.measured: viability at 28.5 h, 10 µM (%)
Please reply with the bare figure in % and do not write the unit itself.

QUERY: Quick one: viability at 28.5 h, 10 µM of O=C(O)CCc1ccc(S(=O)(=O)Nc2ccc(N3CCCC3=O)cc2)cc1 [CBK295647] ?
RESULT: 106

QUERY: Quick one: viability at 28.5 h, 10 µM of CC(=O)N[C@H]1CO[C@H]2[C@@H]1OC[C@@H]2n1nnnc1-c1ccccc1 [CBK289483] ?
RESULT: 87.1

QUERY: Quick one: viability at 28.5 h, 10 µM of O=C(Nc1cnc(-c2cccc(OC(F)(F)F)c2)c(-c2cccnc2)n1)c1ccccn1 [CBK036837] ?
RESULT: 99.2

QUERY: Quick one: viability at 28.5 h, 10 µM of O=C(O)c1ccc(N2C(=O)c3ccc(Oc4ccc(S(=O)(=O)c5ccc(C(=O)O)cc5)cc4)cc3C2=O)cc1 [CBK263603] ?
RESULT: 96.8

QUERY: Quick one: viability at 28.5 h, 10 µM of Cc1cccc(CNC(=O)CC2CCN(Cc3cccc(C(F)(F)F)c3)CC2)n1 [CBK285950] ?
RESULT: 105

QUERY: Quick one: viability at 28.5 h, 10 µM of CC(Nc1nc(-c2ccc([N+](=O)[O-])cc2)nc2ccccc12)c1ccccc1 (stereo not drawn) [CBK264767] ?
RESULT: 88.3

QUERY: Quick one: viability at 28.5 h, 10 µM of O=C(O)CCC(=O)Nc1ccc(Oc2ccccc2)cc1 [CBK286957] ?
RESULT: 88.9

QUERY: Quick one: viability at 28.5 h, 10 µM of Cc1cc(C(=O)Nc2nnc[nH]2)ccc1[N+](=O)[O-] [CBK264719] ?
RESULT: 99.7

QUERY: Quick one: viability at 28.5 h, 10 µM of Cc1onc(-c2ccccc2Cl)c1C(=O)N(Cc1nc(-c2ccccc2)no1)C(C)C [CBK269289] ?
RESULT: 113

----------
protocol.description: in vitro
setup.conditions: human, hela cells, % viability
For each of the compounds below, state its viability at 28.5 h, 10 µM.
Hey, just the number and the unit after it is fine.

QUERY: Quick one: viability at 28.5 h, 10 µM of `Cc1ccc(NC(=O)CCc2cccnc2)c(C)n1` ?
RESULT: 101%

QUERY: Quick one: viability at 28.5 h, 10 µM of `CC(=O)NCCNC(=O)c1cc(Br)c[nH]1` ?
RESULT: 88.3%

QUERY: Quick one: viability at 28.5 h, 10 µM of `CCOc1ccccc1-n1c(CCC(=O)O)ccc1-c1cccs1` ?
RESULT: 105%

QUERY: Quick one: viability at 28.5 h, 10 µM of `NC(=O)c1ccc(-n2ncc(-c3ccsc3)n2)cc1` ?
RESULT: 98.4%

QUERY: Quick one: viability at 28.5 h, 10 µM of `Cc1cc(C[C@@H]2COC[C@H]2NCc2ccccc2C(F)(F)F)on1` ?
RESULT: 100%

QUERY: Quick one: viability at 28.5 h, 10 µM of `Cc1c(C(=O)Nc2ccc(C(=O)O)cc2)nnn1-c1ccc(Cl)cc1` ?
RESULT: 84.4%

QUERY: Quick one: viability at 28.5 h, 10 µM of Cc1cc(Cl)cc(C)c1NS(=O)(=O)c1ccc(N2CCCNCC2)c2ccccc12 [CBK004433C] ?
RESULT: 97.2%

QUERY: Quick one: viability at 28.5 h, 10 µM of `Cc1n[nH]c(O)c1C(c1ccc(OC(=O)c2ccccc2Cl)cc1)c1c(C)n[nH]c1O` ?
RESULT: 101%

QUERY: Quick one: viability at 28.5 h, 10 µM of `O=c1[nH]c(NCCCO)nc2sc3c(c12)CCCC3` ?
RESULT: 87.9%

QUERY: Quick one: viability at 28.5 h, 10 µM of `C=CCNC(=O)N[C@H]1[C@H](O)[C@@H](N2CCCC2)[C@@H]2OC[C@H]1O2` ?
RESULT: 92.6%

QUERY: Quick one: viability at 28.5 h, 10 µM of `CC(C)NC(=O)c1ccc(Cl)cc1` ?
RESULT: 101%

QUERY: Quick one: viability at 28.5 h, 10 µM of `Cc1cc(O)n2nc(C)c(-c3ccc(F)cc3)c2n1` ?
RESULT: 89.3%

QUERY: Quick one: viability at 28.5 h, 10 µM of `CC1CCN(S(=O)(=O)c2ccc(NC(=O)COc3ccc([N+](=O)[O-])cc3)cc2)CC1` ?
RESULT: 95.4%

QUERY: Quick one: viability at 28.5 h, 10 µM of `O=C(NCc1cccnc1)c1ccc(-c2cccc(Cl)c2Cl)o1` ?
RESULT: 102%

QUERY: Quick one: viability at 28.5 h, 10 µM of `O=C1NC(=S)S/C1=C\c1cn(-c2ccccc2)nc1-c1ccc(OCc2ccccc2)cc1` ?
RESULT: 79.4%

QUERY: Quick one: viability at 28.5 h, 10 µM of Cn1ncc(Cl)c1C1CCCCCN1C(=O)c1cccnc1 (centres unmarked) ?
RESULT: 108%

QUERY: Quick one: viability at 28.5 h, 10 µM of c1ccc(NCc2ncnc3c2ncn3C2CCCCO2)cc1 (centres unmarked) ?
RESULT: 100%

QUERY: Quick one: viability at 28.5 h, 10 µM of `CSc1nc(SCC(=O)N(c2ccccc2)c2ccccc2)c2c3c(sc2n1)CCC3` ?
RESULT: 90.6%

QUERY: Quick one: viability at 28.5 h, 10 µM of `CCn1c(CN2CCN(Cc3ccc4c(c3)OCO4)CC2)n[nH]c1=S` ?
RESULT: 105%

QUERY: Quick one: viability at 28.5 h, 10 µM of Cc1ccc(C2(O)CCN(CCNC(=O)C3CC3C)CC2)cc1 (centres unmarked) ?
RESULT: 83.9%

----------
protocol.description: in vitro
setup.conditions: human, hela cells, % viability
quantity.measured: viability at 28.5 h, 10 µM (%)
Please reply with the bare figure in % and do not write the unit itself.

QUERY: Quick one: viability at 28.5 h, 10 µM of CC(C)c1ccc(N2C(=O)[C@@H]3C[C@@H](NC(=O)c4cccn4C)CCN3C2=O)cc1 [CBK289547] ?
RESULT: 92.3

QUERY: Quick one: viability at 28.5 h, 10 µM of O=C(Nc1ccccc1-c1nc2ccccc2[nH]1)c1ccc(S(=O)(=O)N2CCCC2)cc1 [CBK263252] ?
RESULT: 88.5

QUERY: Quick one: viability at 28.5 h, 10 µM of O=C(Cn1cc(C(=O)NCC2(c3ccccc3Cl)CC2)ccc1=O)NC1CCCCC1 [CBK285985] ?
RESULT: 92.7

QUERY: Quick one: viability at 28.5 h, 10 µM of OC(COc1ccccc1)CN1CCN(Cc2ccccc2)CC1 (centres unmarked) [CBK074852C] ?
RESULT: 93

QUERY: Quick one: viability at 28.5 h, 10 µM of Cc1ccc(S(=O)(=O)N2CCC(C(=O)NC3(C(=O)O)CCCCC3)CC2)cc1 [CBK295644] ?
RESULT: 109
